Values were extracted from patent US6683095B2.

target: CDK4/cyclin D1 (Homo sapiens)
Construct: GST
Sequence (P11802 whole entry): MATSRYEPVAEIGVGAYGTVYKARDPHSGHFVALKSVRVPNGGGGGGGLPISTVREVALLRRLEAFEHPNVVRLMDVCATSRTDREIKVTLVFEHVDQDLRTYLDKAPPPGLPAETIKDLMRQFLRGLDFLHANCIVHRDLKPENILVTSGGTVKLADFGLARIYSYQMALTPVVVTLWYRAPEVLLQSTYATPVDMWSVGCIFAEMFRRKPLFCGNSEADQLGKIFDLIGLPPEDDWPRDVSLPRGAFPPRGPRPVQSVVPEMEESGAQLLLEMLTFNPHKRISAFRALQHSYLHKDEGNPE
Sequence (P24385 whole entry partner): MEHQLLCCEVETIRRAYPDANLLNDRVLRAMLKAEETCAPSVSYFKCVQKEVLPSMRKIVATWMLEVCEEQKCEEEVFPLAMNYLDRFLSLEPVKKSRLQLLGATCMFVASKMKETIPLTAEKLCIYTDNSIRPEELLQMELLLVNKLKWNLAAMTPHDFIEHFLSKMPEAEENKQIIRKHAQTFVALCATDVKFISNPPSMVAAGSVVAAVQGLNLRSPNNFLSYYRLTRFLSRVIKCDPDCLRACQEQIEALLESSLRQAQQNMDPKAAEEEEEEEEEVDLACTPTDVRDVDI
method_description: Inhibitory activity against CDK4 (CDK4/cyclin D1 kinase assay, GST-Rb substrate, 32P-ATP)
condition: 100 μM ATP, 30° C., 30 minutes
Description: The activities of CDK2/cyclin A and CDK4/cyclin D1 were determined as follows. […] To analyze the inhibitory activity of the compound, the inhibitor having a proper concentration was added to the enzyme reaction solution, and then the enzyme activity was measured according to the above method.
Hi! Could you tag entries with IC50 below 2000 nM as class 1, and those at or above as class 0? Much appreciated.

Solved cases (5 shown):
# substance_smiles, label_class
rows = [
    ("Cc1cc([N+](=O)[O-])c2oc(-c3ccc(O)c([N+](=O)[O-])c3)c(O)c(=O)c2c1", "class 0"),
    ("CN(C)c1cc(N2CCCS2(=O)=O)c2oc(-c3ccc(O)cc3)c(O)c(=O)c2c1", "class 1"),
    ("Cc1cc(C2CCN(C)CC2)c2oc(-c3ccc(O)cc3)c(O)c(=O)c2c1", "class 1"),
    ("CN(C)c1cc(N2CCCS2(=O)=O)c2oc(-c3ccc(O)c(Cl)c3)c(O)c(=O)c2c1", "class 1"),
    ("Cc1cc(N2CCCS2(=O)=O)c2oc(-c3ccc(O)c(CO)c3)c(O)c(=O)c2c1", "class 0"),
]

Continue with the next compound.
Query block: State whether 2000 nM exceeds IC50 recorded for `O=c1c(O)c(-c2ccc(O)cc2)oc2c(N3CCCS3(=O)=O)cc(NCc3ccccc3)cc12` .
Result block: class 0

----------
target: CDK2/cyclin A (Homo sapiens, UniProt P24941)
Construct: His
method_description: Inhibitory activity against CDK2 (CDK2/cyclin A kinase assay, GST-Rb substrate, 32P-ATP)
condition: 100 μM ATP, 30° C., 30 minutes
property_name: pIC50
Please report pIC50 as the negative decimal logarithm of the molar concentration, giving only the number.

Query block: Which pIC50 value is on record for `CNc1cc(N2CCCS2(=O)=O)c2oc(-c3ccc(O)cc3)c(O)c(=O)c2c1` ?
Result block: 6.65

----------
target: CDK2/cyclin A (Homo sapiens)
Construct: His
method_description: Inhibitory activity against CDK2 (CDK2/cyclin A kinase assay, GST-Rb substrate, 32P-ATP)
condition: 100 μM ATP, 30° C., 30 minutes
Entries are sorted into classes by IC50 as follows: bucket 1: < 0.5 µM; bucket 2: ≥ 0.5 µM and < 2 µM; bucket 3: ≥ 2 µM

Solved cases (5 shown):
# molecule, label_class
measured = [
    ("Cc1ccc2oc(-c3ccc(O)c(O)c3Br)c(O)c(=O)c2c1 [Compound 14]", "bucket 3"),
    ("CN(CCO)c1cc(N2CCCS2(=O)=O)c2oc(-c3ccc(O)cc3)c(O)c(=O)c2c1 [Compound 33]", "bucket 2"),
    ("CC(=O)Nc1cc(N2CCCS2(=O)=O)c2oc(-c3ccc(O)c(Cl)c3)c(O)c(=O)c2c1 [Compound 34]", "bucket 2"),
    ("Cc1cc(N2CCCS2(=O)=O)c2oc(-c3ccc(O)c(C(F)(F)F)c3)c(O)c(=O)c2c1 [Compound 24]", "bucket 1"),
    ("CC(=O)Nc1cc(C)cc2c(=O)c(O)c(-c3ccc(O)c([N+](=O)[O-])c3)oc12 [Compound 3]", "bucket 3"),
]

Query block: Hi there! Could you help me figure out the category for Cc1cc(C2CCN(C)CC2)c2oc(-c3ccc(O)c(C)c3)c(O)c(=O)c2c1 [Compound 42] please?
Result block: bucket 1

Query block: Again, but for Cc1cc(N)c2oc(-c3ccc(O)c(N)c3)c(O)c(=O)c2c1 [Compound 1]
Result block: bucket 2

Query block: Again, but for Cc1cc(-c2ccncc2)c2oc(-c3ccc(O)c(Cl)c3)c(O)c(=O)c2c1 [Compound 39]
Result block: bucket 1

Query block: Again, but for Cc1cc(N)c2oc(-c3ccc(O)cc3)c(O)c(=O)c2c1 [Compound 4]
Result block: bucket 3

Query block: Again, but for Cc1cc(C2CCN(C)CC2)c2oc(-c3ccc(O)c(C(F)(F)F)c3)c(O)c(=O)c2c1 [Compound 43]
Result block: bucket 3

Query block: Again, but for CC(=O)Nc1cc(-c2oc3ccc(C)cc3c(=O)c2O)ccc1O [Compound 6]
Result block: bucket 3

Query block: Again, but for O=c1c(O)c(-c2ccc(O)cc2)oc2c(N3CCCS3(=O)=O)cc(NC3CCNCC3)cc12 [Compound 29]
Result block: bucket 2

Query block: Again, but for Cc1cc(N2CCCS2(=O)=O)c2oc(-c3ccc(O)cc3O)c(O)c(=O)c2c1 [Compound 20]
Result block: bucket 3

Query block: Again, but for Cc1cc(N2CCCS2(=O)=O)c2oc(-c3ccc(O)c(F)c3)c(O)c(=O)c2c1 [Compound 16]
Result block: bucket 1

Query block: Again, but for Cc1cc(N2CCCS2(=O)=O)c2oc(-c3ccc(O)c(Cl)c3)c(O)c(=O)c2c1 [Compound 17]
Result block: bucket 1
